# Target Of Assay: human serum protease plasmin (human, UniProt P00747 97-810, limits assumed)
# Sequence (P00747 97-810 limits assumed): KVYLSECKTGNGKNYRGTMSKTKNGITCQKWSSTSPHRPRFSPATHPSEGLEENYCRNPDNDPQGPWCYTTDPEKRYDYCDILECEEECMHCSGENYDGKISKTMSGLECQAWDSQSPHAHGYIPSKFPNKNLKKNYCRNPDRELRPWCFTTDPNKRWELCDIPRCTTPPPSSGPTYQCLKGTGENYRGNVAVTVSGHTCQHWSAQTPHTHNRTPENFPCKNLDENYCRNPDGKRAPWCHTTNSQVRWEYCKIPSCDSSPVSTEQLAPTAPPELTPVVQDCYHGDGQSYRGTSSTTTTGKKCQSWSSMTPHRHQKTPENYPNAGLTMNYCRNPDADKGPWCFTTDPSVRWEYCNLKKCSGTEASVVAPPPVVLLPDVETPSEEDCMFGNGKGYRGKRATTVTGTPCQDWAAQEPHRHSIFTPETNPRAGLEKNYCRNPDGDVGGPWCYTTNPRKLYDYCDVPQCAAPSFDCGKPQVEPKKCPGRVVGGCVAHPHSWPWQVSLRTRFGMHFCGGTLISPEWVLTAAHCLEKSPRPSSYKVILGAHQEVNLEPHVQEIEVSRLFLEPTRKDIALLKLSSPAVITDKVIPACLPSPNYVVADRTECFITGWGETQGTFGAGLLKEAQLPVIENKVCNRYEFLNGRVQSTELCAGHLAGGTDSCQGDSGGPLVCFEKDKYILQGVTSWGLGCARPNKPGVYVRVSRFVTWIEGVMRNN
# Assay Summary: phage binding to protein on beads (data not shown)
Property: binding result

Binder	Measurement
RWCPKSTLGCMKDSDCLAECVCLEHGYCGAGPSYIEGRIVGSA (designed binder, not shown: mature gene III protein of M13 phage) [CMTI-I analogue 222, phage isolate]	no binding
RWCPTAPLECMKDSDCLAECVCLEHGYCGAGPSYIEGRIVGSA (designed binder, not shown: mature gene III protein of M13 phage) [CMTI-I analogue 112, phage isolate]	no binding
RWCPKTHKECMKDSDCLAECVCLEHGYCGAGPSYIEGRIVGSA (designed binder, not shown: mature gene III protein of M13 phage) [CMTI-I analogue 119, phage isolate]	no binding
